Test system: Enterococcus faecium
method: Antibacterial activity evaluated as minimum inhibitory concentration against 568 Enterococcus faecium (GSE)
Type: functional
recorded-endpoint: MIC
I only need the number, thanks.

Query :: For the compound shown here, C[C@H]1O[C@@H](O[C@@H]2[C@H](Oc3c4cc5cc3Oc3ccc(cc3Cl)[C@@H](O)[C@@H](N)C(=O)N[C@@H](CC(N)=O)C(=O)N[C@H]5C(=O)N[C@H]3C(=O)N[C@H](C(=O)N[C@H](C(=O)O)c5cc(O)cc(O)c5-c5cc3ccc5O)[C@H](O[C@H]3C[C@@](C)(N)[C@@H](O)[C@@H](C)O3)c3cccc(c3)O4)O[C@@H](CO)[C@H](O)[C@H]2O)C[C@@](C)(N)[C@H]1O , give the reported MIC.
Result :: 16

Query :: Check CN[C@H](CC(C)C)C(=O)N[C@H]1C(=O)N[C@@H](CC(N)=O)C(=O)N[C@H]2C(=O)N[C@H]3C(=O)N[C@H](C(=O)N[C@H](C(=O)O)c4cc(O)cc(O)c4-c4cc3ccc4O)[C@H](O[C@H]3C[C@@](C)(N)[C@@H](O)[C@@H](C)O3)c3cccc(c3)Oc3cc2cc(c3O[C@@H]2O[C@@H](CO)[C@H](O)[C@@H](O)[C@@H]2O[C@H]2C[C@@](C)(NCc3ccc(-c4ccc(Cl)cc4)cc3)[C@@H](O)[C@@H](C)O2)Oc2ccc(cc2Cl)[C@H]1O too.
Result :: 2
